Reported koff values for the following binders.
Target: T1, monovalent hVISTA-ECD with polyhistidine tail (SEQ ID NO: 325) (human, UniProt Q9H7M9 33-193)
T1 construct: also called hVISTA-ECD 6-His tag; human VISTA
T1 sequence (Q9H7M9 other isoform, or with tags, fused parts or gaps limits assumed): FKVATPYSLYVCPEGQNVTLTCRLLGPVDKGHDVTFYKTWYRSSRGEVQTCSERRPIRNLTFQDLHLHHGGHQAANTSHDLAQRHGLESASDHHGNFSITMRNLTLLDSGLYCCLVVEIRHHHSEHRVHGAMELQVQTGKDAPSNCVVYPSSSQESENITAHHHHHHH
Test: SPR, mAb captured on Protein A chip, hVISTA injected, PBST pH 6.0, 37 C
Give the value in s⁻¹ but do not write s⁻¹ after it.

binder: P1-077875 (P1-068748 H31S H32Y) (antibody, V domains shown, Reversion mutant of P1-068748 (Kabat names); captured on a Protein A chip) VH: QVQLVESGGGVVQPGRSLRLSCAASGFTFSSYAMHWVRQAPGKGLEWVAIIWYDGSNDDYADSVKGRFTISRDNSKNTLYLQMNSLRAEDTAVYYCARDSGFYDSYYFDYWGQGTLVTVSS VL: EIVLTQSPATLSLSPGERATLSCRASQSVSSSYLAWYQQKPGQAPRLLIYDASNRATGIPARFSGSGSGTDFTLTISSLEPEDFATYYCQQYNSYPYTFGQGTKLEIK
readout kind: koff
value reported: 0.0018
--
binder: P1-077883 (P1-068748 H31S D57K) (antibody, V domains shown, Reversion mutant of P1-068748 (Kabat names); captured on a Protein A chip) VH: QVQLVESGGGVVQPGRSLRLSCAASGFTFSSHAMHWVRQAPGKGLEWVAIIWYDGSNKDYADSVKGRFTISRDNSKNTLYLQMNSLRAEDTAVYYCARDSGFYDSYYFDYWGQGTLVTVSS VL: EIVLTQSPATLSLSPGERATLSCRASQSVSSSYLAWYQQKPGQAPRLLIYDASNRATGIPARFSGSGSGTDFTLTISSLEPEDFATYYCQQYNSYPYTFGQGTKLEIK
readout kind: koff
value reported: 0.002

Then this binder:
Req: Requested read-out: koff. Entry: P1-068748 (antibody, V domains shown, captured on a Protein A chip) VH: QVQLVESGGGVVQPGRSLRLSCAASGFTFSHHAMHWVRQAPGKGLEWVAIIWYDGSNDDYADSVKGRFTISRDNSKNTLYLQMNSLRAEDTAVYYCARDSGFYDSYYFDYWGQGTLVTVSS VL: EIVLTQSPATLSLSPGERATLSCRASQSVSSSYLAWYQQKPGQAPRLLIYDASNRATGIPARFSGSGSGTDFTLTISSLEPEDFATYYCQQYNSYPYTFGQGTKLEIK
Resp: 0.0035
